assay: S6 kinase pathway phospho-S6 level changes – cell-based, A549, cytoblot, luminescence, serum-stimulated, primary screen (AID 1158); conditions: 5 h, higher = more signal;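 also: serum-stimulated A549 lung adenocarcinoma cells; signal is phosphorylated S6 detected by cytoblot immunostaining with HRP secondary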
In this section, each of the molecules is paired with its reported z-score.
METRIC: z-score

> print(dat)
                                   molecule  meas.value
1  COC(=O)[C@]1(CCC(=O)OC(C)(C)C)N=C(c2ccc(OCCCO)cc2)O[C@@H]1c1ccccc1      -0.406
2  CC(C)(C)OC(=O)CC[C@]1(C(=O)NCCN2CCOCC2)COC(c2ccc(OCCCO)cc2)=N1      -0.395
3  COc1ccc(NN2C(C(O)c3ccc(N(C)C)cc3)C=CC3C(=O)N(C4CCCCC4)C(=O)C32)cc1 (stereo not drawn)       -0.25
4  C=C(C(=O)CC[C@H](OC(C)=O)c1ccccc1OCCO)C(C)C        0.66
5  COc1ccc([C@H]2C[C@H]3C(I)=C[C@@H]2C(=O)[C@]32CO2)cc1       0.759
6  COCCCNC(=O)[C@@H]1c2ccccc2C(=O)N(Cc2ccccc2)[C@H]1c1ccc(CO)cc1     -0.0034
7  C=C(CCCC)/C(=C/C[C@@H](OC(C)=O)c1cccc(OCCO)c1)c1cnc2ccccc2c1       0.237
8  O=C1C[C@@](C(=O)NCc2ccccc2)(c2ccc([N+](=O)[O-])cc2)[C@@H](c2ccc(CO)cc2)N1CC12CC3CC(CC(C3)C1)C2     -0.0355

----------
// composite z-score lookup, one value per entry
experiment: small molecules captured by biotinylated probe aFST – biochemical, small-molecule microarray, fluorescence 635/667, stem cell growth factor project, primary screen (AID 1086); conditions: higher = more signal;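 also: score merges 667 nm fluorescence with signal-to-noise of each printed compound spot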

COMPOUND	composite z-score
COCC(=C=CC[C@H](O)c1ccccc1OCCO)CCO	-0.0019
C#CCN(C/C=C/c1ccccc1)[C@H](CO)c1ccccc1	0.288
[N-]=[N+]=NCc1ccccc1C[C@@]1(C(=O)NCC(O)CO)N=C(c2ccc(OCCCO)cc2)O[C@@H]1c1ccccc1 (some centres undefined)	-0.12
C=CCC(OC(C)=O)[C@@H]1[C@@H](N(Cc2ccc(-c3cccc(C(F)(F)F)c3)o2)C(=O)Cc2ccc(OC)cc2)c2cc(OCCCO)ccc2N1C(=O)c1ccc2ccccc2c1 (some centres undefined)	0.234

----------
experiment: resazurin metabolic signal in A549 cells – cell-based, resazurin fluorescence, 24 h, PK04 Diversity Set, profiling panel (AID 1171); conditions: A549 viability, higher = more signal, called active from +8 up or from −8 down; also: test concentration not given here
METRIC: z-score

> print(dat)
                                   compound   metric  meas.value
1  [N-]=[N+]=NCc1ccccc1C[C@@]1(C(=O)NCC(O)CO)N=C(c2ccc(OCCCO)cc2)O[C@@H]1c1ccccc1 (some centres undefined)  z-score       -1.01
2       CC(C)C(=C=CC[C@H](O)c1ccc(CO)o1)CCO  z-score      -0.507
3  CC1CC/C=C\[C@H]2OC34C=CCN(Cc5ccccc5)C(=O)[C@H]3N(C(C)CO)C(=O)[C@@H]4C2C(=O)O1 (some centres undefined)  z-score       0.418
4  CC(=O)NCCCC[C@@H]1NC(=O)[C@H]2C[C@@H](C(=O)O)[C@@H](c3ccc(O)cc3)N2C1=O  z-score       0.273
